# Assay summary: Surface tension measurement (Tracker tensiometer)
# Format: physicochemical
# Experimental conditions: concentration 0.500 %; room temperature
Experimental endpoint: Surface tension (mN/m)
Give bare numbers, in mN/m.

CCCCCCCCCCCCCCCCCC[N+](C)(C)CC(O)CN(CCN(CCN(CC(O)C[N+](C)(C)C)CC(O)C[N+](C)(C)CCCCCCCCCCCCCCCCCC)CC(O)C[N+](C)(C)C)CC(O)C[N+](C)(C)C.[Cl-].[Cl-].[Cl-].[Cl-].[Cl-] (centres unmarked) [Compound 9]
50.09
CCCCCCCCCCCCCCCCCC[N+](C)(C)CC(O)CN(CCN(CCN(CC(O)C[N+](C)(C)CCCCCCCCCCCCCCCCCC)CC(O)C[N+](C)(C)CCCCCCCCCCCCCCCCCC)CC(O)C[N+](C)(C)C)CC(O)C[N+](C)(C)CCCCCCCCCCCCCCCCCC.[Cl-].[Cl-].[Cl-].[Cl-].[Cl-] (centres unmarked) [Compound 11]
47.38
CCCCCCCCCCCCCCCCCC[N+](C)(C)CC(O)CN(CCN(CCN(CC(O)C[N+](C)(C)CCCCCCCCCCCCCCCCCC)CC(O)C[N+](C)(C)CCCCCCCCCCCCCCCCCC)CC(O)C[N+](C)(C)C)CC(O)C[N+](C)(C)C.[Cl-].[Cl-].[Cl-].[Cl-].[Cl-] (centres unmarked) [Compound 10]
47.92
CCCCCCCCCCCCCCCCCC[N+](C)(C)CC(O)CN(CCN(CCN(CC(O)C[N+](C)(C)C)CC(O)C[N+](C)(C)C)CC(O)C[N+](C)(C)C)CC(O)C[N+](C)(C)C.[Cl-].[Cl-].[Cl-].[Cl-].[Cl-] (centres unmarked) [Compound 7]
55.13

Now for another entry.
Suppose we examine the compound CCCCCCCCCCCCCCCCCC[N+](C)(C)CC(O)CN(CCN(CCN(CC(O)C[N+](C)(C)CCCCCCCCCCCCCCCCCC)CC(O)C[N+](C)(C)CCCCCCCCCCCCCCCCCC)CC(O)C[N+](C)(C)CCCCCCCCCCCCCCCCCC)CCN(CC(O)C[N+](C)(C)CCCCCCCCCCCCCCCCCC)CC(O)C[N+](C)(C)CCCCCCCCCCCCCCCCCC.[Cl-].[Cl-].[Cl-].[Cl-].[Cl-].[Cl-] (centres unmarked) [Compound 13] ; what Surface tension value has been reported?
48.02

###

# Assay summary: Surface tension measurement (Tracker tensiometer)
# Format: physicochemical
# Experimental conditions: concentration 0.100 %; room temperature
Experimental endpoint: Surface tension

CCCCCCCCCCCCCCCCCC[N+](C)(C)CC(O)CN(CCN(CC(O)C[N+](C)(C)CCCCCCCCCCCCCCCCCC)CC(O)C[N+](C)(C)CCCCCCCCCCCCCCCCCC)CCN(CC(O)C[N+](C)(C)CCCCCCCCCCCCCCCCCC)CC(O)C[N+](C)(C)CCCCCCCCCCCCCCCCCC.[Cl-].[Cl-].[Cl-].[Cl-].[Cl-] (centres unmarked) [Compound 12]
49.42 mN/m

Entry CCCCCCCCCCCCCCCCCC[N+](C)(C)CC(O)CN(CCN(CCN(CC(O)C[N+](C)(C)C)CC(O)C[N+](C)(C)CCCCCCCCCCCCCCCCCC)CC(O)C[N+](C)(C)C)CC(O)C[N+](C)(C)C.[Cl-].[Cl-].[Cl-].[Cl-].[Cl-] (centres unmarked) [Compound 9] : reported Surface tension = ?
54.69 mN/m

###

# Assay summary: Surface tension measurement (Tracker tensiometer)
# Assay type: physicochemical
# Experimental conditions: concentration 0.200 %; room temperature
Rule: class 1 for Surface tension not less than 50 mN/m, class 0 for anything less.

Example cases with answers are listed next.
CCCCCCCCCCCCCCCCCC[N+](C)(C)CC(O)CN(CCN(CCN(CC(O)C[N+](C)(C)C)CC(O)C[N+](C)(C)C)CC(O)C[N+](C)(C)C)CC(O)C[N+](C)(C)C.[Cl-].[Cl-].[Cl-].[Cl-].[Cl-] (stereo not drawn)
class 1
CCCCCCCCCCCCCCCCCC[N+](C)(C)CC(O)CN(CCN(CC(O)C[N+](C)(C)CCCCCCCCCCCCCCCCCC)CC(O)C[N+](C)(C)CCCCCCCCCCCCCCCCCC)CCN(CC(O)C[N+](C)(C)CCCCCCCCCCCCCCCCCC)CC(O)C[N+](C)(C)CCCCCCCCCCCCCCCCCC.[Cl-].[Cl-].[Cl-].[Cl-].[Cl-] (stereo not drawn)
class 0

Could you now consider this next compound?
Item CCCCCCCCCCCCCCCCCC[N+](C)(C)CC(O)CN(CCN(CCN(CC(O)C[N+](C)(C)C)CC(O)C[N+](C)(C)CCCCCCCCCCCCCCCCCC)CC(O)C[N+](C)(C)C)CC(O)C[N+](C)(C)C.[Cl-].[Cl-].[Cl-].[Cl-].[Cl-] (stereo not drawn) with Surface tension of 50 mN/m or above?
class 1

###

Provide the reported Surface tension of each item.
# Assay summary: Surface tension measurement (Tracker tensiometer)
# Format: physicochemical
# Experimental conditions: concentration 0.200 %; room temperature

CCCCCCCCCCCCCCCCCC[N+](C)(C)CC(O)CN(CCN(CCN(CC(O)C[N+](C)(C)CCCCCCCCCCCCCCCCCC)CC(O)C[N+](C)(C)CCCCCCCCCCCCCCCCCC)CC(O)C[N+](C)(C)CCCCCCCCCCCCCCCCCC)CCN(CC(O)C[N+](C)(C)CCCCCCCCCCCCCCCCCC)CC(O)C[N+](C)(C)CCCCCCCCCCCCCCCCCC.[Cl-].[Cl-].[Cl-].[Cl-].[Cl-].[Cl-] (stereo not drawn)
50.31 mN/m

Give Surface tension for each of the items listed below.
1. CCCCCCCCCCCCCCCCCC[N+](C)(C)CC(O)CN(CCN(CCN(CC(O)C[N+](C)(C)CCCCCCCCCCCCCCCCCC)CC(O)C[N+](C)(C)CCCCCCCCCCCCCCCCCC)CC(O)C[N+](C)(C)C)CC(O)C[N+](C)(C)CCCCCCCCCCCCCCCCCC.[Cl-].[Cl-].[Cl-].[Cl-].[Cl-] (stereo not drawn)
2. CCCCCCCCCCCCCCCCCC[N+](C)(C)CC(O)CN(CCN(CCN(CC(O)C[N+](C)(C)CCCCCCCCCCCCCCCCCC)CC(O)C[N+](C)(C)CCCCCCCCCCCCCCCCCC)CC(O)C[N+](C)(C)C)CC(O)C[N+](C)(C)C.[Cl-].[Cl-].[Cl-].[Cl-].[Cl-] (stereo not drawn)

1: 50.16 mN/m; 2: 50.58 mN/m
